B1: RNA-binding E3 ubiquitin-protein ligase MEX3C, residues 325 to 391; numbered along this chain, Q5U5Q3 (parent)
chain: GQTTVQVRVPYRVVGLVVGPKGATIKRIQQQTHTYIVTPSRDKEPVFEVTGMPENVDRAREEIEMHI

variants of: B1; test: abundance fitness (aPCA) (normalised: wild type 0, dead -1); higher = more abundant; growth selection in yeast, the domain comes from the species named; settings: Homo sapiens
Each record here notes measured abundance fitness.
test_readout: abundance fitness

K43N :: -0.093
S40M :: -0.016
Q29P :: -0.765
T38N :: -0.347
P53Q :: -0.173
P20M :: -0.763
T38L :: -0.268
S40F :: -0.349
T32R :: -0.938
P53I :: -0.689
Y35Q :: 0.206
T38I :: -0.177
I28H :: -0.751
I25T :: -0.75
E48M :: -0.04
I28V :: -0.496
E44F :: -0.906
F47T :: -0.511
E48C :: -0.357
V37D :: -0.377
S40T :: -0.081
P45T :: -0.493
